Molecular target: S100A4 (Homo sapiens)
Construct: made in house; host or cells: Escherichia coli BL21(DE3)
Sequence (P26447 whole entry): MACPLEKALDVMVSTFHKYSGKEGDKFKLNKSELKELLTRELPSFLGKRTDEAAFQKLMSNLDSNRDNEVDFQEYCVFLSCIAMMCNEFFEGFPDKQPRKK
Experiment: Pull-down assay with immobilized protein and LSM libraries
Type: binding
Settings: H14 library; 1:1 binding assumed; read-out: Surface mapping KD (apparent)
Recorded Kd, one value per entry.
The answer is to be given in µM; state only the numeric part.

Look over these answered cases.
| compound | Kd (µM) |
| --- | --- |
| CC[C@H](C)[C@@H](CC(=O)N[C@H]1CCCC[C@@H]1C(N)=O)NC(=O)[C@H]1CCCC[C@@H]1NC(=O)[C@H]1CCCC[C@@H]1NC(=O)C[C@H](CC(N)=O)NC(=O)[C@H]1CCCC[C@@H]1N [H14 NI] | 472 |
| CC[C@H](C)[C@@H](CC(=O)N[C@H]1CCCC[C@@H]1C(N)=O)NC(=O)[C@H]1CCCC[C@@H]1NC(=O)[C@H]1CCCC[C@@H]1NC(=O)C[C@H](CCC(N)=O)NC(=O)[C@H]1CCCC[C@@H]1N [H14 QI] | 256 |
| CC[C@H](C)[C@@H](CC(=O)N[C@H]1CCCC[C@@H]1C(=O)N[C@H]1CCCC[C@@H]1C(=O)N[C@@H](CCC(N)=O)CC(=O)N[C@H]1CCCC[C@@H]1C(N)=O)NC(=O)[C@H]1CCCC[C@@H]1N [H14 IQ] | 319 |
| CSCC[C@@H](CC(=O)N[C@H]1CCCC[C@@H]1C(=O)N[C@H]1CCCC[C@@H]1C(=O)N[C@@H](CCCNC(=N)N)CC(=O)N[C@H]1CCCC[C@@H]1C(N)=O)NC(=O)[C@H]1CCCC[C@@H]1N [H14 MR] | 247 |

With those in mind, consider the next compound.
GET /value?item= NCCCC[C@@H](CC(=O)N[C@H]1CCCC[C@@H]1C(N)=O)NC(=O)[C@H]1CCCC[C@@H]1NC(=O)[C@H]1CCCC[C@@H]1NC(=O)C[C@H](Cc1ccc(O)cc1)NC(=O)[C@H]1CCCC[C@@H]1N [H14 YK] &field=Kd returns 146

---

Recorded Kd, one value per entry.
Target: Gal-1 (Homo sapiens)
Construct: made in house; host or cells: E. coli BL21(DE3)
Experiment: Pull-down assay with immobilized protein and LSM libraries
Type: binding
Conditions: H14 library; 1:1 binding assumed; read-out: Surface mapping KD (apparent)
Experimental: Pull-down assays with immobilized test proteins and foldameric LSM libraries were carried out. Proteins were equilibrated with LSM probes, and equilibrium bound fractions (FB) were determined from the unbound fractions measured by HPLC-MS methods. Hits were corrected with background binding of the resin. […] MS data analysis. […] Using these processing setups, all raw data files were reprocessed together and analyzed. […]
The answer is to be given in µM; state only the numeric part.

Look over these answered cases.
| mol.smiles | measured.quantity | experimental.result |
| --- | --- | --- |
| NC(=O)[C@H]1CCCC[C@@H]1NC(=O)C[C@H](Cc1ccccc1)NC(=O)[C@H]1CCCC[C@@H]1NC(=O)[C@H]1CCCC[C@@H]1NC(=O)C[C@H](Cc1ccccc1)NC(=O)[C@H]1CCCC[C@@H]1N | Kd | 75 |
| NC(=O)[C@H]1CCCC[C@@H]1NC(=O)C[C@H](Cc1ccccc1)NC(=O)[C@H]1CCCC[C@@H]1NC(=O)[C@H]1CCCC[C@@H]1NC(=O)C[C@H](Cc1ccc(O)cc1)NC(=O)[C@H]1CCCC[C@@H]1N | Kd | 162 |
| NC(=O)[C@H]1CCCC[C@@H]1NC(=O)C[C@H](CO)NC(=O)[C@H]1CCCC[C@@H]1NC(=O)[C@H]1CCCC[C@@H]1NC(=O)C[C@H](CO)NC(=O)[C@H]1CCCC[C@@H]1N | Kd | 435 |
| C[C@@H](O)[C@@H](CC(=O)N[C@H]1CCCC[C@@H]1C(N)=O)NC(=O)[C@H]1CCCC[C@@H]1NC(=O)[C@H]1CCCC[C@@H]1NC(=O)C[C@H](Cc1ccc(O)cc1)NC(=O)[C@H]1CCCC[C@@H]1N | Kd | 396 |

With those in mind, consider the next compound.
GET /value?item= CC(C)C[C@@H](CC(=O)N[C@H]1CCCC[C@@H]1C(=O)N[C@H]1CCCC[C@@H]1C(=O)N[C@@H](CCC(N)=O)CC(=O)N[C@H]1CCCC[C@@H]1C(N)=O)NC(=O)[C@H]1CCCC[C@@H]1N &field=Kd returns 343

---

Recorded log10 of Kd, one value per entry.
Biological target: S100A4 (Homo sapiens)
Construct: made in house; host or cells: Escherichia coli BL21(DE3)
Assay: Pull-down assay with immobilized protein and LSM libraries
Assay type: binding
Settings: H14 library; 1:1 binding assumed; read-out: Surface mapping KD (apparent)
Lab note - Kd converted to log10 from values in µM.

| mol.smiles | log10 of Kd |
| --- | --- |
| CC(C)C[C@@H](CC(=O)N[C@H]1CCCC[C@@H]1C(N)=O)NC(=O)[C@H]1CCCC[C@@H]1NC(=O)[C@H]1CCCC[C@@H]1NC(=O)C[C@H](Cc1ccccc1)NC(=O)[C@H]1CCCC[C@@H]1N | 0.95 |

GET /value?item= NC(=O)[C@H]1CCCC[C@@H]1NC(=O)C[C@H](CO)NC(=O)[C@H]1CCCC[C@@H]1NC(=O)[C@H]1CCCC[C@@H]1NC(=O)C[C@H](Cc1ccccc1)NC(=O)[C@H]1CCCC[C@@H]1N &field=log10 of Kd returns 2.05

---

Molecular target: CaM (Bos taurus)
Construct: made in house; host or cells: E. coli BL21 (DE3)
Experiment: Pull-down assay with immobilized protein and LSM libraries
Type: binding, bovine
Conditions: H12 library; 1:2 stoichiometry assumed; read-out: Surface mapping KD (apparent)
measured.quantity: Kd (µM)
The answer is to be given in µM; state only the numeric part.

GET /value?item= CSCC[C@@H](CC(=O)N[C@H]1CCC[C@@H]1C(=O)N[C@H]1CCC[C@@H]1C(=O)N[C@H](CC(=O)N[C@H]1CCC[C@@H]1C(=O)N[C@H]1CCC[C@@H]1C(N)=O)CC(C)C)NC(=O)[C@H]1CCC[C@@H]1NC(=O)[C@H]1CCC[C@@H]1N &field=Kd returns 98

---

Molecular target: S100A4 (Homo sapiens)
Construct: made in house; host or cells: Escherichia coli BL21(DE3)
Experiment: Pull-down assay with immobilized protein and LSM libraries
Format: binding
Details: H12 library; 1:1 binding assumed; read-out: Surface mapping KD (apparent)
measured.quantity: Kd

Look over these answered cases.
| mol.smiles | Kd |
| --- | --- |
| CC(C)C[C@@H](CC(=O)N[C@H]1CCC[C@@H]1C(=O)N[C@H]1CCC[C@@H]1C(N)=O)NC(=O)[C@H]1CCC[C@@H]1NC(=O)[C@H]1CCC[C@@H]1NC(=O)C[C@H](Cc1ccccc1)NC(=O)[C@H]1CCC[C@@H]1NC(=O)[C@H]1CCC[C@@H]1N | 83 µM |
| CC[C@H](C)[C@@H](CC(=O)N[C@H]1CCC[C@@H]1C(=O)N[C@H]1CCC[C@@H]1C(N)=O)NC(=O)[C@H]1CCC[C@@H]1NC(=O)[C@H]1CCC[C@@H]1NC(=O)C[C@H](CCSC)NC(=O)[C@H]1CCC[C@@H]1NC(=O)[C@H]1CCC[C@@H]1N | 358 µM |
| CC[C@H](C)[C@@H](CC(=O)N[C@H]1CCC[C@@H]1C(=O)N[C@H]1CCC[C@@H]1C(N)=O)NC(=O)[C@H]1CCC[C@@H]1NC(=O)[C@H]1CCC[C@@H]1NC(=O)C[C@H](Cc1ccccc1)NC(=O)[C@H]1CCC[C@@H]1NC(=O)[C@H]1CCC[C@@H]1N | 126 µM |

With those in mind, consider the next compound.
GET /value?item= CC(C)C[C@@H](CC(=O)N[C@H]1CCC[C@@H]1C(=O)N[C@H]1CCC[C@@H]1C(=O)N[C@H](CC(=O)N[C@H]1CCC[C@@H]1C(=O)N[C@H]1CCC[C@@H]1C(N)=O)Cc1ccccc1)NC(=O)[C@H]1CCC[C@@H]1NC(=O)[C@H]1CCC[C@@H]1N &field=Kd returns 32 µM

---

Biological target: Gal-1 (Homo sapiens, UniProt P09382)
Construct: made in house; host or cells: E. coli BL21(DE3)
Sequence (P09382 whole entry): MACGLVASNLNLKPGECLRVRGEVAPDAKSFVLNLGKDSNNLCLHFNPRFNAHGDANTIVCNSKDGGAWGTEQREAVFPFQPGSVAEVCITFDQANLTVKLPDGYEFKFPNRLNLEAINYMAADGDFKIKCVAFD
Assay: Pull-down assay with immobilized protein and LSM libraries
Format: binding
Details: H14 library; 1:1 binding assumed; read-out: Surface mapping KD (apparent)
measured.quantity: Kd
Field: value (include unit after the number)

Look over these answered cases.
| mol.smiles | Kd |
| --- | --- |
| CC(C)[C@@H](CC(=O)N[C@H]1CCCC[C@@H]1C(N)=O)NC(=O)[C@H]1CCCC[C@@H]1NC(=O)[C@H]1CCCC[C@@H]1NC(=O)C[C@H](CO)NC(=O)[C@H]1CCCC[C@@H]1N | 221 µM |
| NC(=O)C[C@@H](CC(=O)N[C@H]1CCCC[C@@H]1C(=O)N[C@H]1CCCC[C@@H]1C(=O)N[C@H](CC(=O)N[C@H]1CCCC[C@@H]1C(N)=O)Cc1ccccc1)NC(=O)[C@H]1CCCC[C@@H]1N | 264 µM |
| CC(C)C[C@@H](CC(=O)N[C@H]1CCCC[C@@H]1C(N)=O)NC(=O)[C@H]1CCCC[C@@H]1NC(=O)[C@H]1CCCC[C@@H]1NC(=O)C[C@H](Cc1ccc(O)cc1)NC(=O)[C@H]1CCCC[C@@H]1N | 148 µM |
| CC[C@H](C)[C@@H](CC(=O)N[C@H]1CCCC[C@@H]1C(N)=O)NC(=O)[C@H]1CCCC[C@@H]1NC(=O)[C@H]1CCCC[C@@H]1NC(=O)C[C@H](Cc1c[nH]c2ccccc12)NC(=O)[C@H]1CCCC[C@@H]1N | 71 µM |

With those in mind, consider the next compound.
GET /value?item= NC(=O)[C@H]1CCCC[C@@H]1NC(=O)C[C@H](CC(=O)O)NC(=O)[C@H]1CCCC[C@@H]1NC(=O)[C@H]1CCCC[C@@H]1NC(=O)C[C@H](Cc1ccc(O)cc1)NC(=O)[C@H]1CCCC[C@@H]1N &field=Kd returns 119 µM
